tested on: HCC827 cells; assay: Cell viability assay (CCK-8), HCC827; assay type: cell-based; settings: Homo sapiens, HCC827, 48 h, read-out: Antiproliferation activity (pIC50 ± SEM) HCC827 (converted)
Metric: IC50

- COc1ccc(C(C)=O)c(O)c1: > 10 µM

Request - read-out IC50 | tested on HCC827 cells | compound O=c1cc(-c2ccc(O)cc2)oc2cc(O)cc(O)c12
> 10 µM

Another compound to look at: COc1ccc2cc3[n+](cc2c1OC)CCc1cc2c(cc1-3)OCO2 [compound 17, Berberine chloride]
> 10 µM

Another compound to look at: C[C@H]1COC2=C1C(=O)C(=O)c1c2ccc2c1CCCC2(C)C
6.31 µM

====

Target: human MAGL (Homo sapiens, UniProt Q99685)
Construct: expressed in transfected cells; host or cells: HEK293T (transient transfection; membrane fraction)
Sequence (Q99685 1-303): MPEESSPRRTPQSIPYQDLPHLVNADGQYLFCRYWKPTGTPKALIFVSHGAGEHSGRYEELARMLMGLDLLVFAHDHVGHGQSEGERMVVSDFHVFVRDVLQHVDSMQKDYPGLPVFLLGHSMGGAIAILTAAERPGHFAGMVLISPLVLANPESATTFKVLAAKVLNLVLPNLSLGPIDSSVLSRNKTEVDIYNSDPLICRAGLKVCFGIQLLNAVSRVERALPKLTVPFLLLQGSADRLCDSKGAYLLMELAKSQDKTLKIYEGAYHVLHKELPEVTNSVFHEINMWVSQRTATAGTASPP
Assay: MAGL activity assay (AA-HNA fluorogenic substrate)
Format: biochemical
Conditions: 100 µM, AA-HNA substrate assay, Supplementary Table 1; read-out: MAGL Inhibition (%)
Parameter: activity at 100 µM. Scope: all listed entries.
Write down the numeric answer in % and omit the unit.

- O=c1c(O)c(-c2cc(O)c(O)c(O)c2)oc2cc(O)cc(O)c12: 41.2
- O=c1cc(-c2ccccc2)oc2cc(O)c(O)c(O)c12: 64.3
- Cc1cc2c(C(C)C)c(O)c(O)c(C=O)c2c(O)c1-c1c(C)cc2c(C(C)C)c(O)c(O)c(C=O)c2c1O [compound 34, Gossypol Acetate]: 35.2
- O=c1c(O)c(-c2ccc(O)c(O)c2)oc2cc(O)cc(O)c12: 42

What measured activity at 100 µM goes with C=CCc1ccc(O)c(-c2ccc(O)c(CC=C)c2)c1 ?
111

Another molecule to look at: COc1ccc(C(C)=O)c(O)c1
102

Another molecule to look at: O=c1cc(-c2ccccc2)oc2cc(O)cc(O)c12
93.2

====

tested on: Hela cells; assay: Cell viability assay (CCK-8), Hela; assay type: cell-based; conditions: Homo sapiens, 48 h, read-out: Antiproliferation activity (pIC50 ± SEM) Hela (converted)
Parameter: IC50. Scope: all listed entries.

Below, each entry is followed by its recorded IC50 result.
* COc1ccc(C(C)=O)c(O)c1 [compound 64, Paeonol] | > 10 µM
* O=c1cc(-c2ccc(O)cc2)oc2cc(O)cc(O)c12 [compound 9, Apigenin] | > 10 µM
* C[C@H]1COC2=C1C(=O)C(=O)c1c2ccc2c1CCCC2(C)C [compound 23, Cryptotanshinone] | 7.94 µM

Then there is this molecule:
What measured IC50 goes with COc1ccc2cc3[n+](cc2c1OC)CCc1cc2c(cc1-3)OCO2 [compound 17, Berberine chloride] ?
> 10 µM
